Hello, the source for this data is ChEMBL document CHEMBL2424555, in case you need it.

System: HepG2
PROTOCOL: Antiproliferative activity against human HepG2 cells after 48 hrs by MTT assay
Type: functional, cell-based
TEST SETTINGS: HepG2, 48 h
# label = 1 if IC50 < 4 µM else 0

> print(dat)
                              smiles.record  category
1  O=C(/C=C/c1cccs1)Nc1ccc2ncnc(Nc3cccc(Cl)c3)c2c1         0

Prompt: Decide: IC50 of `Clc1cccc(Nc2ncnc3ccc(NCc4cccc(Br)n4)cc23)c1` strictly below 4 µM?
Completion: 1

Prompt: Another: `O=C(/C=C/c1ncc2ccccc2n1)Nc1ccc2ncnc(Nc3cccc(Cl)c3)c2c1`
Completion: 0

Prompt: Another: `Clc1cccc(Nc2ncnc3ccc(NCc4cccs4)cc23)c1`
Completion: 1

Prompt: Another: `O=C(/C=C/c1cccnc1Cl)Nc1ccc2ncnc(Nc3cccc(Cl)c3)c2c1`
Completion: 0

Prompt: Another: `O=C(/C=C/c1cccc(Br)n1)Nc1ccc2ncnc(Nc3cccc(Cl)c3)c2c1`
Completion: 0

Prompt: Another: `CCCCNc1ccc2ncnc(Nc3cccc(Cl)c3)c2c1`
Completion: 0

====

Field: pIC50. Provide a value for each of the molecules that follow.
Test system: HepG2
PROTOCOL: Antiproliferative activity against human HepG2 cells after 48 hrs by MTT assay
Type: functional, cell-based
TEST SETTINGS: HepG2, 48 h
Numbers only, as −log10 of the molar value.

> print(dat)
                              smiles.record  test.value
1  Cc1cccc(CNc2ccc3ncnc(Nc4cccc(Cl)c4)c3c2)n1        5.44
2  Clc1cccc(Nc2ncnc3ccc(NCc4ncc5ccccc5n4)cc23)c1        5.25
3       CSCCCNc1ccc2ncnc(Nc3cccc(Cl)c3)c2c1        5.05
4   Clc1cccc(Nc2ncnc3ccc(NCc4cccnc4)cc23)c1        5.38
5  Clc1cccc(Nc2ncnc3ccc(NCc4c[nH]c5ccccc45)cc23)c1        5.28

Could you report pIC50 for every entry in the following list?
1. Clc1cccc(Nc2ncnc3ccc(NCc4ccc(Br)s4)cc23)c1
2. O=C(/C=C/c1ccc(Br)s1)Nc1ccc2ncnc(Nc3cccc(Cl)c3)c2c1

Completion:
1. 5.51
2. 5.05

Could you report pIC50 for every entry in the following list?
1. Cc1cccc(/C=C/C(=O)Nc2ccc3ncnc(Nc4cccc(Cl)c4)c3c2)n1
2. O=C(/C=C/c1cccnc1)Nc1ccc2ncnc(Nc3cccc(Cl)c3)c2c1
3. O=C(/C=C/c1c[nH]c2ccccc12)Nc1ccc2ncnc(Nc3cccc(Cl)c3)c2c1

Completion:
1. 5.32
2. 5.04
3. 5.15

====

SYSTEM UNDER TEST: Epidermal growth factor receptor (Homo sapiens, UniProt P00533)
Sequence (P00533 whole entry, the tested form may be a part): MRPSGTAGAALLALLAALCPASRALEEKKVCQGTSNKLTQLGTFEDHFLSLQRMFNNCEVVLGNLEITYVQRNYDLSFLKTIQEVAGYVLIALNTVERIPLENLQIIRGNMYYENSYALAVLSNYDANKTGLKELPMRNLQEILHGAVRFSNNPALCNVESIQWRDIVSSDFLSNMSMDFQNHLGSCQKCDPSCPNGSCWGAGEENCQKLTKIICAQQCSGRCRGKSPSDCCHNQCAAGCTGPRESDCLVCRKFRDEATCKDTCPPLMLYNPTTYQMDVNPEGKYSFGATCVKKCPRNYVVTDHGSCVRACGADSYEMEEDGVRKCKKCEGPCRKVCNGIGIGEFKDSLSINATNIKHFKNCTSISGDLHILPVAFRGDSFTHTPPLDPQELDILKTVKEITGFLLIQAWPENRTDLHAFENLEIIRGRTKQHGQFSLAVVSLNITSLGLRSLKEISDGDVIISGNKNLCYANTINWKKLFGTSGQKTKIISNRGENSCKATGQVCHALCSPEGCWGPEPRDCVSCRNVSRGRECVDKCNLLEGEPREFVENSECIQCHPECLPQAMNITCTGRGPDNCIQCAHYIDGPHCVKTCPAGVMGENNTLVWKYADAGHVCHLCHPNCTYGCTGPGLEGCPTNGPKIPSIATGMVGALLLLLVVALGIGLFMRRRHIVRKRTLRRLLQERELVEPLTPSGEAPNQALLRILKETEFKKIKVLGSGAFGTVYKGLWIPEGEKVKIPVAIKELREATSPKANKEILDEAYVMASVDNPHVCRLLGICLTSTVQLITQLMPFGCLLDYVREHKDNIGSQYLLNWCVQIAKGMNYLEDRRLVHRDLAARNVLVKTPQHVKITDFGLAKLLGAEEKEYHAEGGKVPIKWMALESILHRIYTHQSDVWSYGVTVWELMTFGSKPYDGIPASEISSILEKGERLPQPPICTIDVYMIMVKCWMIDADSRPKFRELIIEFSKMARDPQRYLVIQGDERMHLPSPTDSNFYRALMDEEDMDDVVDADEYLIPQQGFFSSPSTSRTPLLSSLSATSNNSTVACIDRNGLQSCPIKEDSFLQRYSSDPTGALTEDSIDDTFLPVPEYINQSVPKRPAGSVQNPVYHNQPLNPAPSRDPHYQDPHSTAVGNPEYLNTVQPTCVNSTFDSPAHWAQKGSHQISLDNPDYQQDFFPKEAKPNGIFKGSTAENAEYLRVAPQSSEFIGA
PROTOCOL: Inhibition of recombinant EGFR kinase cytoplasmic domain (unknown origin) expressed in baculovirus expression vector-infected insect sf9 cells assessed as level of autophosphorylation after 10 mins by DELFIA/time-resolved fluorometry
# label = t if IC50 < 4 µM else f

These recorded examples may help you get a feel for the data.
> print(dat)
                              smiles.record                         system.under.test  category
1  O=C(/C=C/c1cccs1)Nc1ccc2ncnc(Nc3cccc(Cl)c3)c2c1  Epidermal growth factor receptor (Homo sapiens, UniProt P00533)         f
2  O=C(/C=C/c1cccnc1Cl)Nc1ccc2ncnc(Nc3cccc(Cl)c3)c2c1  Epidermal growth factor receptor (Homo sapiens, UniProt P00533)         t
3    Clc1cccc(Nc2ncnc3ccc(NCc4cccs4)cc23)c1  Epidermal growth factor receptor (Homo sapiens, UniProt P00533)         t

Prompt: Decide: IC50 of `O=C(/C=C/c1ccc(Br)s1)Nc1ccc2ncnc(Nc3cccc(Cl)c3)c2c1` strictly below 4 µM?
Completion: t
